System: human red blood cells (hRBC)
assay-explanation: Hemolysis assay
Type: cell-based
Experimental: Hemolysis assay. The hemolysis assay was performed using human red blood cells (hRBC) as described previously (Raguse, et al. J. Am. Chem. Soc. 2002, 124, 12774-12785; Porter, et al. J. Am. Chem. Soc. 2005, 127, 11516-11529). The hRBC were washed three times in TRIS-buffered saline (TBS; 10 mM TRIS, 150 mM NaCl, pH 7.2) and then diluted to a concentration of 1% (v/v) in TBS. […] The absorbance of the diluted supernatant was measured at 405 nm, and the percent hemolysis for each well was calculated from […]
Parameter: % Hemolysis at MIC. Scope: all listed entries.
experimental-endpoint: % Hemolysis at MIC (%)

>>> experimental_value("CC(C)C[C@@H](CC(=O)N[C@@H](CCCCN)CC(=O)N[C@H]1CCCC[C@@H]1C(=O)N[C@H](CC(=O)N[C@@H](CCCCN)CC(=O)N[C@H]1CCCC[C@@H]1C(=O)N[C@H](CC(=O)N[C@@H](CCCCN)CC(N)=O)CC(C)C)CC(C)C)NC(=O)[C@H]1CCCC[C@@H]1NC(=O)C[C@@H](N)Cc1ccc(O)cc1 [β-peptide 2, β^3Tyr-(ACHC-β^3Leu-β^3Lys)3]")
73
>>> experimental_value("CC(C)[C@@H](CC(=O)N[C@@H](CCCCN)CC(=O)N[C@H](CC(=O)N[C@H](CC(=O)N[C@@H](CCCCN)CC(=O)N[C@H](CC(=O)N[C@H](CC(=O)N[C@@H](CCCCN)CC(N)=O)C(C)C)C(C)C)C(C)C)C(C)C)NC(=O)C[C@@H](NC(=O)C[C@@H](N)Cc1ccc(O)cc1)C(C)C [β-peptide 4, β^3Tyr-(β^3Val-β^3Val-β^3Lys)3]")
9
>>> experimental_value("NCCCC[C@@H](CC(N)=O)NC(=O)[C@H]1CCCC[C@@H]1NC(=O)[C@H]1CCCC[C@@H]1NC(=O)C[C@H](CCCCN)NC(=O)[C@H]1CCCC[C@@H]1NC(=O)[C@H]1CCCC[C@@H]1NC(=O)C[C@H](CCCCN)NC(=O)[C@H]1CCCC[C@@H]1NC(=O)[C@H]1CCCC[C@@H]1NC(=O)C[C@@H](N)Cc1ccc(O)cc1 [β-peptide 5, β^3Tyr-(ACHC-ACHC-β^3Lys)3]")
7
>>> experimental_value("CC(C)[C@@H](CC(=O)N[C@@H](CCCCN)CC(=O)N[C@H]1CCCC[C@@H]1C(=O)N[C@H](CC(=O)N[C@@H](CCCCN)CC(=O)N[C@H]1CCCC[C@@H]1C(=O)N[C@H](CC(=O)N[C@@H](CCCCN)CC(N)=O)C(C)C)C(C)C)NC(=O)[C@H]1CCCC[C@@H]1NC(=O)C[C@@H](N)Cc1ccc(O)cc1 [β-peptide 1, β^3Tyr-(ACHC-β^3Val-β^3Lys)3]")
21

###

Tested on: human red blood cells (hRBC)
assay-explanation: Hemolysis assay
Type: cell-based
experimental-endpoint: % Hemolysis at MIC (%)

>>> experimental_value("NCCCC[C@@H](CC(N)=O)NC(=O)C[C@H](Cc1ccccc1)NC(=O)[C@H]1CCCC[C@@H]1NC(=O)C[C@H](CCCCN)NC(=O)C[C@H](Cc1ccccc1)NC(=O)[C@H]1CCCC[C@@H]1NC(=O)C[C@H](CCCCN)NC(=O)C[C@H](Cc1ccccc1)NC(=O)[C@H]1CCCC[C@@H]1NC(=O)C[C@@H](N)Cc1ccc(O)cc1 [β-peptide 3, β^3Tyr-(ACHC-β^3Phe-β^3Lys)3]")
80
